testedTarget: CsrA-His6 (Escherichia coli, UniProt P69913 1-61)
Sequence (P69913 whole entry): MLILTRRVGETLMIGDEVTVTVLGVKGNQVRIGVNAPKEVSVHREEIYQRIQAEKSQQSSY
testMethodNotes: EMSA; 10 mM Mg2+; apparent KD, cooperative equation; single shift; EMSA: 0.5 nM RNA, 10 mM MgCl2, 100 mM KCl, 32.5 ng yeast RNA, 20 mM DTT, 7.5% glycerol, 4 U SUPERasin, 37 C 30 min (pH not stated); footprint: 2 nM RNA, 10 mM Tris-HCl pH 7.5, 10 mM MgCl2, 100 mM KCl, 40 ng yeast RNA, 7.5% glycerol, 37 C
experimentalConditions: protein: recombinant; tags: His6 (C-terminal per name); chain copies: 2; label: 5'-32P
propertyMeasured: pKd
Hey, just a heads up that pKd is the negative log base 10 of the concentration in molar.

GET /values?readout=pKd&item= dps EMSA transcript (ssRNA) RNA: GGGUUAAUUACUGGGACAUAACAUCAAGAGGAUAUGAAAUUAUGAGUACCGC
7.60
